- experimentDescription: viability gain of MRP-1-high H69AR cells under doxorubicin, pilot screen, MRP-1 activator project, CellTiter-Glo, duplicate (AID 807);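 also: compound pretreatment 18-22 h then 72 h combined with doxorubicin; 0% = doxorubicin alone and 100% = vehicle without doxorubicin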
- appliedConditions: H69AR viability with doxorubicin, CellTiter-Glo luminescence; at 10 µM; stronger effect = higher value
measuredProperty: viability increase (%)

compound	experimentalResult
CC1CCc2nn(CC(=O)NC3CCCC(C)C3C)cc2C1 (stereo not drawn)	1.67
CCOCCCNC(=O)C(c1ccc(OC)cc1)N(Cc1ccc2c(c1)OCO2)C(=O)CNC(C)=O (stereo not drawn)	2.19
Cc1cc(-n2nc(C)cc2C)nc(NS(=O)(=O)c2ccccc2)n1	-2.09

====

- experimentDescription: growth suppression of beta-catenin knockout HCT116, pilot screen, human colon tumor cells (AID 823);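 also: 0% = wells killed by 20 µM Hyamine and 100% = untreated DMSO cell wells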
- appliedConditions: CellTiter-Glo, 60 h, at 10 µM, stronger effect = lower value
Records with an inconclusive call do not appear.
// NB: equality with 90% counts as no; only viability strictly below is yes

molecule	classLabel
O=C(O)C1CCCN1S(=O)(=O)c1ccc(Cl)c(Cl)c1 (stereo not drawn)	no
CC(NC(=O)Cc1ccccc1)c1nc2ccccc2[nH]1 (stereo not drawn)	no
O=C(C1CCN(S(=O)(=O)c2cccc3cccnc23)CC1)N1CCN(C2CCCC2)CC1	no
Cc1cc2cc(CNC(=O)Cc3cccs3)ccc2n1C	yes
Cc1ccc(C2c3c(oc4cc(C)c(C)cc4c3=O)C(=O)N2CCCN2CCOCC2)cc1 (stereo not drawn)	yes
Cc1ccc(N(C(C)C(=O)O)S(=O)(=O)c2c(C)[nH]c(=O)[nH]c2=O)cc1 (stereo not drawn)	no
Clc1ccccc1OCCN1CCCCC1	yes
